The reported numbers originate from patent US8952150B2.

Measured Inh (% of Ctl) 0.5 μM of individual entries
- Measurement target: rat PGT (Rattus norvegicus (Rat))
- Assay text: [3H]PGE2 uptake inhibition in MDCK cells stably transfected with rat PGT (percent inhibition and IC50)
- Format: cell-based
- Conditions used: 0.5 μM compound; inhibition of [3H]PGE2 uptake

Take a look at these entries with their results.
- Smiles record: "O=C(NCCOCCOCCNc1nc(Nc2ccc(O)cc2)nc(Nc2ccc(C(=O)NCc3ccccc3F)cc2)n1)c1ccccc1"
  Measurement target: "rat PGT (Rattus norvegicus (Rat))"
  Inh (% of Ctl) 0.5 μM: "60.6 % of Ctl"
- Smiles record: "O=C(NCCOCCOCCNc1nc(Nc2ccc(O)cc2)nc(Nc2ccc(C(=O)Nc3ccccc3)cc2)n1)c1ccccc1"
  Measurement target: "rat PGT (Rattus norvegicus (Rat))"
  Inh (% of Ctl) 0.5 μM: "38.3 % of Ctl"
- Smiles record: "Cc1cccc(CNC(=O)c2ccc(Nc3nc(NCCOCCOCCNC(=O)c4ccccc4)nc(Nc4ccc(O)cc4)n3)cc2)c1"
  Measurement target: "rat PGT (Rattus norvegicus (Rat))"
  Inh (% of Ctl) 0.5 μM: "56.3 % of Ctl"

# lookup: Inh (% of Ctl) 0.5 μM of `O=C(O)c1ccc(CNc2nc(NCCOCCOCCNC(=O)c3ccccc3)nc(Nc3ccc(C(=O)NCc4ccccc4)cc3)n2)cc1`
28.8 % of Ctl

* * *

- Measurement target: rat PGT (Rattus norvegicus (Rat), UniProt Q00910)
- Assay text: [3H]PGE2 uptake inhibition in MDCK cells stably transfected with rat PGT (percent inhibition and IC50)
- Type: cell-based
- Conditions used: 0.5 μM compound; inhibition of [3H]PGE2 uptake
Measured Inh (% of Ctl) 0.5 μM of individual entries

- Molecule: "COCCOCCOCCNC(=O)c1ccc(Nc2nc(NCCOCCOCCNC(=O)c3ccccc3)nc(Nc3ccc(O)cc3)n2)cc1 [compound 19]"
  Measurement target: "rat PGT (Rattus norvegicus (Rat), UniProt Q00910)"
  Inh (% of Ctl) 0.5 μM: "41.3 % of Ctl"
- Molecule: "O=C(NCCOCCOCCNc1nc(Nc2ccc(O)cc2)nc(Nc2ccc(C(=O)NCc3ccccc3Cl)cc2)n1)c1ccccc1 [compound 106]"
  Measurement target: "rat PGT (Rattus norvegicus (Rat), UniProt Q00910)"
  Inh (% of Ctl) 0.5 μM: "64.8 % of Ctl"

Request - read-out Inh (% of Ctl) 0.5 μM | tested on rat PGT (Rattus norvegicus (Rat), UniProt Q00910) | molecule O=C(NCCOCCOCCNc1nc(Nc2ccc(O)cc2)nc(Nc2ccc(C(=O)NCc3ccc(Cl)cc3)cc2)n1)c1ccccc1 [compound 91]
72.1 % of Ctl

Same question for O=C(NCCOCCOCCNc1nc(Nc2ccc(O)cc2)nc(Nc2ccc(C(=O)NCCc3ccccc3)cc2)n1)c1ccccc1 [compound 111] please.
59.1 % of Ctl

Same question for O=C(NCCOCCOCCNc1nc(Nc2ccc(O)cc2)nc(NC2CCCCC2)n1)c1ccccc1 [compound 27] please.
28.2 % of Ctl

Same question for COC(=O)Cc1ccc(Nc2nc(NCCOCCOCCNC(=O)c3ccccc3)nc(Nc3ccc(C(=O)NCc4ccccc4)cc3)n2)cc1 [compound 122] please.
38.1 % of Ctl

Same question for O=C(NCCOCCOCCNc1nc(Nc2ccc(O)cc2)nc(Nc2ccc(C(=O)NCc3ccccc3)cc2)n1)c1ccccc1 [compound 22] please.
62.4 % of Ctl

Same question for O=C(O)c1ccc(CNC(=O)c2ccc(Nc3nc(NCCOCCOCCNC(=O)c4ccccc4)nc(Nc4ccc(O)cc4)n3)cc2)cc1 [compound 112] please.
17.5 % of Ctl

Same question for O=C(NCCOCCOCCNc1nc(O)nc(Nc2ccc(O)cc2)n1)c1ccccc1 [compound 12] please.
2.8 % of Ctl

Same question for CN(C)c1nc(NCCOCCOCCNC(=O)c2ccccc2)nc(Nc2ccc(O)cc2)n1 [compound 9] please.
1.3 % of Ctl

Same question for O=C(NCCOCCOCCNc1nc(Nc2ccc(O)cc2)nc(Nc2ccc(C(=O)NCc3ccccc3)c(C(F)(F)F)c2)n1)c1ccccc1 [compound 82] please.
2.1 % of Ctl

Same question for COc1ccc(CNC(=O)c2ccc(Nc3nc(NCCOCCOCCNC(=O)c4ccccc4)nc(Nc4ccc(O)cc4)n3)cc2)cc1 [compound 92] please.
33.7 % of Ctl

Same question for CN(C)C(=O)c1ccc(Nc2nc(NCCOCCOCCNC(=O)c3ccccc3)nc(Nc3ccc(O)cc3)n2)cc1 [compound 15] please.
15.0 % of Ctl

Same question for O=C(NCCOCCOCCNc1nc(Nc2ccc(C(=O)NCc3ccc(F)cc3)cc2)nc(Nc2ccc(O)c(F)c2)n1)c1ccccc1 [compound 143] please.
57.8 % of Ctl
